Measured values drawn from the supplement of paper PMC8253809 for this set.

Tested on: SUDIPGVI (diffuse intrinsic pontine glioma line)
PROTOCOL TEXT: growth inhibition (% activity, log2 RLU normalised to DMSO / staurosporine); higher = more growth inhibition
CONDITION CONTEXT: 33 µM
MEASURED PROPERTY: growth inhibition (%)

INSERT INTO assay_data (compound, measured_property, unit_info, result) VALUES
  ('NC(=O)c1cn(Cc2c(F)cccc2F)nn1', 'growth inhibition', '%', -0.117),
  ('COc1ccc(C2C(=O)c3ccccc3C2=O)cc1', 'growth inhibition', '%', -1.7),
  ('COC(=O)[C@@H]1CC2=CC(=O)CC[C@]2(C)[C@@]23O[C@@H]2C[C@@]2(C)[C@@H](CC[C@@]24CCC(=O)O4)[C@H]13', 'growth inhibition', '%', 1.05),
  ('Nc1cc(C(Cl)=C(Cl)Cl)c(S(N)(=O)=O)cc1S(N)(=O)=O', 'growth inhibition', '%', -1.12),
  ('CC(=O)NS(=O)(=O)c1ccc(N)cc1', 'growth inhibition', '%', 0.507),
  ('COc1cc([C@@H]2c3cc4c(cc3[C@@H](O[C@@H]3O[C@@H]5CO[C@@H](c6cccs6)O[C@H]5[C@H](O)[C@H]3O)[C@H]3COC(=O)[C@H]23)OCO4)cc(OC)c1O', 'growth inhibition', '%', 10),
  ('CCCC(=O)[O-].[Na+]', 'growth inhibition', '%', 0.269),
  ('Cc1nnc(C(C)C)n1C1C[C@H]2CC[C@@H](C1)N2CC[C@H](NC(=O)C1CCC(F)(F)CC1)c1ccccc1 (stereo in doubt)', 'growth inhibition', '%', -0.429),
  ('Cc1cc(NC(=O)C2=C(O)c3ccccc3S(=O)(=O)N2C)no1', 'growth inhibition', '%', -10.5),
  ('Cc1cc2c(cc1S(N)(=O)=O)S(=O)(=O)CCC2', 'growth inhibition', '%', 2.41),
  ('CC(=O)N[C@@H](CS)C(=O)O', 'growth inhibition', '%', 0.65),
  ('NS(=O)(=O)c1cc2c(cc1Cl)NC(C(Cl)Cl)NS2(=O)=O (centres undefined)', 'growth inhibition', '%', 2.47),
  ('Clc1cccc(Cl)c1NC1=NCCN1', 'growth inhibition', '%', -1.83),
  ('CN(C)[C@@H]1C(O)=C(C(=O)NCN2CCCC2)C(=O)[C@@]2(O)C(O)=C3C(=O)c4c(O)cccc4[C@@](C)(O)[C@H]3C[C@@H]12', 'growth inhibition', '%', 2.48),
  ('CC1CCc2cc(F)cc3c(=O)c(C(=O)O)cn1c23 (centres undefined)', 'growth inhibition', '%', 0.839),
  ('CC(C)(C)c1ccc(C(O)CCCN2CCC(C(O)(c3ccccc3)c3ccccc3)CC2)cc1 (centres undefined)', 'growth inhibition', '%', -2.2),
  ('C[C@]12C=CC(=O)C=C1CC[C@H]1[C@@H]3C[C@@H](O)[C@](O)(C(=O)CO)[C@@]3(C)C[C@H](O)[C@@]12F', 'growth inhibition', '%', 0.457),
  ('CCN1CCN(C(=O)NC(C(=O)NC2C(=O)N3C(C(=O)O)=C(CSc4nnnn4C)CSC23)c2ccc(O)cc2)C(=O)C1=O (centres undefined)', 'growth inhibition', '%', -2.25),
  ('Nc1nc(Cl)nc2c1ncn2[C@H]1C[C@H](O)[C@@H](CO)O1', 'growth inhibition', '%', 5.86),
  ('O=P(O)(O)C(O)(Cn1ccnc1)P(=O)(O)O', 'growth inhibition', '%', 4.43),
  ('CC(C)(CO)[C@@H](O)C(=O)NCCC(=O)O', 'growth inhibition', '%', -3.69),
  ('Cc1nnc(NS(=O)(=O)c2ccc(N)cc2)s1', 'growth inhibition', '%', 1.77),
  ('COc1cc(Cc2cnc(N)nc2N)cc(OC)c1OC', 'growth inhibition', '%', 2.5),
  ('CCOC(=O)C1=C(C)NC(C)=C(C(=O)OC)C1c1cccc([N+](=O)[O-])c1 (centres undefined)', 'growth inhibition', '%', -8.45);

* * *

Test system: SUDIPGXIII (diffuse intrinsic pontine glioma line)
PROTOCOL TEXT: growth inhibition (% activity, log2 RLU normalised to DMSO / staurosporine); higher = more growth inhibition
CONDITION CONTEXT: 33 µM
MEASURED PROPERTY: growth inhibition (%)

INSERT INTO measurements (compound, measured_property, result) VALUES
  ('OC(CNCC(O)C1CCc2cc(F)ccc2O1)C1CCc2cc(F)ccc2O1 (centres undefined)', 'growth inhibition', 2.62),
  ('NNC(=O)c1ccncc1', 'growth inhibition', -0.311),
  ('O=c1ccn([C@@H]2O[C@H](CO)[C@@H](O)[C@H]2O)c(=O)[nH]1', 'growth inhibition', -2.42),
  ('CC(=O)NS(=O)(=O)c1ccc(N)cc1', 'growth inhibition', 0.27),
  ('Cc1cn([C@@H]2C[C@@H](O)[C@H](CO)O2)c(=O)[nH]c1=O', 'growth inhibition', -2.27),
  ('CO/N=C(\C(=O)N[C@@H]1C(=O)N2C(C(=O)O)=C(Cn3ccc(=N)n3CCO)CS[C@H]12)c1csc(N)n1', 'growth inhibition', 1.31),
  ('CC(C)NCC(O)c1ccc(NS(C)(=O)=O)cc1 (centres undefined)', 'growth inhibition', -1.17),
  ('C[C@H]1O[C@H](O[C@H]2[C@H](O)[C@@H](O)[C@@H](O[C@H]3[C@H](O)[C@@H](O)C(O)O[C@@H]3CO)O[C@@H]2CO)[C@H](O)[C@@H](O)[C@@H]1N[C@H]1C=C(CO)[C@@H](O)[C@H](O)[C@H]1O (some centres undefined)', 'growth inhibition', -0.463),
  ('CCN(CC)CCOC(=O)c1ccc(N)cc1', 'growth inhibition', 0.856),
  ('Cc1cc(C#N)cc(C)c1Oc1nc(Nc2ccc(C#N)cc2)nc(N)c1Br', 'growth inhibition', 27.6),
  ('CC1(C)O[C@@H]2C[C@H]3[C@@H]4CCC5=CC(=O)C=C[C@]5(C)[C@H]4[C@@H](O)C[C@]3(C)[C@]2(C(=O)CO)O1', 'growth inhibition', 2.31),
  ('CCN(CC)CCOC(=O)C(c1ccccc1)c1ccccc1', 'growth inhibition', -1.28),
  ('CN(C/C=C/c1ccccc1)Cc1cccc2ccccc12', 'growth inhibition', 0.316),
  ('O=C([O-])CC(O)(CC(=O)[O-])C(=O)[O-].O=C([O-])CC(O)(CC(=O)[O-])C(=O)[O-].[Bi+3].[K+].[K+].[K+].[K+].[K+]', 'growth inhibition', -15.3);

* * *

Test system: DIPGX29 (H3.3 K27M diffuse intrinsic pontine glioma line)
PROTOCOL TEXT: growth inhibition (% activity, log2 RLU normalised to DMSO / staurosporine); higher = more growth inhibition
CONDITION CONTEXT: 33 µM
MEASURED PROPERTY: growth inhibition (%)

INSERT INTO assay_data (molecular_string, result) VALUES
  ('CC1(C)[C@@H](OC(=O)CCC(=O)O)CC[C@]2(C)[C@H]3C(=O)C=C4[C@@H]5C[C@@](C)(C(=O)O)CC[C@]5(C)CC[C@@]4(C)[C@]3(C)CC[C@@H]12', -0.0896),
  ('CN(C(=O)CN(CCO)CC(=O)N(C)C(C)(C)Cc1ccccc1)C(C)(C)Cc1ccccc1', 11.3),
  ('Clc1ccc2nsnc2c1NC1=NCCN1', -1.22),
  ('CC[C@H]1OC(=O)C[C@@H](O)[C@H](C)[C@@H](O[C@@H]2O[C@H](C)[C@@H](O)[C@H](N(C)C)[C@H]2O)[C@@H](CCN2C[C@H](C)C[C@H](C)C2)C[C@@H](C)C(=O)/C=C/C(C)=C/[C@@H]1CO[C@@H]1O[C@H](C)[C@@H](O)[C@@H](OC)[C@H]1OC', -3.18),
  ('CN1CCN(CCCN2c3ccccc3Sc3ccc(Cl)cc32)CC1', 4.66),
  ('NCCCC(O)(P(=O)(O)O)P(=O)(O)O', -0.387),
  ('CC(=O)Oc1cc(C(F)(F)F)ccc1C(=O)O', -1.87),
  ('CCN(CC)CCOc1ccc(C(=C(Cl)c2ccccc2)c2ccccc2)cc1', 26.6),
  ('CCOC(=O)n1ccn(C)c1=S', 1.7),
  ('Cc1ccc2c(Cl)cc(Cl)c(O)c2n1', 8.88),
  ('O=C(CCCN1CC=C(n2c(=O)[nH]c3ccccc32)CC1)c1ccc(F)cc1', -2.81),
  ('CC(C)C(=O)Oc1ccc(CO)cc1[C@H](CCN(C(C)C)C(C)C)c1ccccc1', 0.102),
  ('CC(=O)OCC(=O)[C@@]1(O)CC[C@H]2[C@@H]3CCC4=CC(=O)C=C[C@]4(C)[C@H]3[C@@H](O)C[C@@]21C', 2.24);
